Values were extracted from the supplement of paper PMC10567573.

Assign protein stability index to each entry below.
B1: RAB22A (parent)
chain: FVEDSFDPNINPTIGASFMTKTVQ

variants of: B1; assay: protein stability index of a GFP-peptide fusion (GPS, HEK-293T) (PSI 1-6); higher = more stable; conditions: c terminus: a fixed tail appended;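 also: lentivirally expressed fusions sorted by FACS into six bins by GFP to DsRed ratio, PSI derived from sequencing read proportions per bin multiplied by bin number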
One number for each entry.

[[record]]
mutation = "N9V"
property_name = "protein stability index"
quantitative_readout = 2.04

[[record]]
mutation = "T13H"
property_name = "protein stability index"
quantitative_readout = 2.31

[[record]]
mutation = "P8G"
property_name = "protein stability index"
quantitative_readout = 2.52

[[record]]
mutation = "S5M"
property_name = "protein stability index"
quantitative_readout = 1.99

[[record]]
mutation = "P12G"
property_name = "protein stability index"
quantitative_readout = 2.29


For every record below, what is its protein stability index?
1. I14S
2. E3W

# output
1. 2.46
2. 1.72
